- testedTarget: Transient receptor potential cation channel subfamily V member 1 (Homo sapiens, UniProt Q8NER1)
- Sequence (Q8NER1 whole entry): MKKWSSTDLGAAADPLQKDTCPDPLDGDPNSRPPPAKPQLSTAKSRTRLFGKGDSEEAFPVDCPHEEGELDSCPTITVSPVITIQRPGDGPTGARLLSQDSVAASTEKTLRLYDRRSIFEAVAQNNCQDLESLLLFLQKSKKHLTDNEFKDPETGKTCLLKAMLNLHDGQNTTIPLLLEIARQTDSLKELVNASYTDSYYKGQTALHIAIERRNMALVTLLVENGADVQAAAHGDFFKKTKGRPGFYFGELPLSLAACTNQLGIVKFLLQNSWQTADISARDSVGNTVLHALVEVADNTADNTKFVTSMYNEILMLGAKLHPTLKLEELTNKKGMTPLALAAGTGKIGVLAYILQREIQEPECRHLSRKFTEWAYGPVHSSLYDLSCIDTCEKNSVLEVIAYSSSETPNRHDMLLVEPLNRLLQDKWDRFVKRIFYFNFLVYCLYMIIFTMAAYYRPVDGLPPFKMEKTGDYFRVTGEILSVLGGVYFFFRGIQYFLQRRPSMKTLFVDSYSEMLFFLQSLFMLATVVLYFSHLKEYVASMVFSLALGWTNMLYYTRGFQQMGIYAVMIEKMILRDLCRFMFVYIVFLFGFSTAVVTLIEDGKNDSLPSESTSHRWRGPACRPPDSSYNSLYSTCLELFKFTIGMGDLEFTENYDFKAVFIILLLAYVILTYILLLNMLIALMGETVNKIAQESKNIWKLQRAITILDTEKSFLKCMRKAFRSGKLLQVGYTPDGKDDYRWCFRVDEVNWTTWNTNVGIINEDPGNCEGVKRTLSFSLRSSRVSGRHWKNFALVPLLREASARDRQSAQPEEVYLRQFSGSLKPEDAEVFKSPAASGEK
- experiment: Antagonist activity at human TRPV1 receptor expressed in HEK293 cells assessed as inhibition of capsaicin-induced intracellular Ca2+ elevation incubated for 5 mins prior to capsaicin-stimulation by spectrofluorimetric analysis
Returns: string. Value is Fulfilled if measured IC50 is below 20 µM, and Not fulfilled if it is greater than or equal to it.

See these solved cases before continuing.
>>> answerlabel("CN(C)C(=O)n1nnc(Cc2ccc(-c3cccc(O)c3)cc2)n1")
"Not fulfilled"
>>> answerlabel("Cc1cccc(-c2ccc(Cc3nnn(C(=O)N(C)C)n3)cc2)c1")
"Not fulfilled"
>>> answerlabel("CN(C)C(=O)n1nnnc1Cc1ccc(-c2cccc(CO)c2)cc1")
"Not fulfilled"
>>> answerlabel("CN(C)C(=O)n1nnc(Cc2ccc(-c3cccc(C(N)=O)c3)cc2)n1")
"Not fulfilled"
>>> answerlabel("Cc1ccc(-c2ccc(Cc3nnn(C(=O)N(C)C)n3)cc2)cc1")
"Not fulfilled"

q: Say whether its IC50 is strictly beneath 20 µM. Entry: `O=C(N1CCCCC1)n1nnnc1Cc1ccc(-c2ccccc2)cc1`
a: Not fulfilled

q: Say whether its IC50 is strictly beneath 20 µM. Entry: `CC(=O)c1cccc(-c2ccc(Cc3nnn(C(=O)N(C)C)n3)cc2)c1`
a: Not fulfilled

q: Say whether its IC50 is strictly beneath 20 µM. Entry: `CN(C)C(=O)n1nnc(Cc2ccc(-c3ccc(O)cc3)cc2)n1`
a: Not fulfilled

q: Say whether its IC50 is strictly beneath 20 µM. Entry: `COC(=O)c1cccc(-c2ccc(Cc3nnn(C(=O)N(C)C)n3)cc2)c1`
a: Not fulfilled

q: Say whether its IC50 is strictly beneath 20 µM. Entry: `CN(C(=O)n1nnnc1Cc1ccc(-c2ccccc2)cc1)C1CCCCC1`
a: Fulfilled

q: Say whether its IC50 is strictly beneath 20 µM. Entry: `CN(C(=O)n1nnc(Cc2ccc(-c3ccccc3)cc2)n1)C1CCCCC1`
a: Fulfilled

* * *

- testedTarget: Transient receptor potential cation channel subfamily A member 1 (Rattus norvegicus)
- Sequence (Q6RI86 whole entry): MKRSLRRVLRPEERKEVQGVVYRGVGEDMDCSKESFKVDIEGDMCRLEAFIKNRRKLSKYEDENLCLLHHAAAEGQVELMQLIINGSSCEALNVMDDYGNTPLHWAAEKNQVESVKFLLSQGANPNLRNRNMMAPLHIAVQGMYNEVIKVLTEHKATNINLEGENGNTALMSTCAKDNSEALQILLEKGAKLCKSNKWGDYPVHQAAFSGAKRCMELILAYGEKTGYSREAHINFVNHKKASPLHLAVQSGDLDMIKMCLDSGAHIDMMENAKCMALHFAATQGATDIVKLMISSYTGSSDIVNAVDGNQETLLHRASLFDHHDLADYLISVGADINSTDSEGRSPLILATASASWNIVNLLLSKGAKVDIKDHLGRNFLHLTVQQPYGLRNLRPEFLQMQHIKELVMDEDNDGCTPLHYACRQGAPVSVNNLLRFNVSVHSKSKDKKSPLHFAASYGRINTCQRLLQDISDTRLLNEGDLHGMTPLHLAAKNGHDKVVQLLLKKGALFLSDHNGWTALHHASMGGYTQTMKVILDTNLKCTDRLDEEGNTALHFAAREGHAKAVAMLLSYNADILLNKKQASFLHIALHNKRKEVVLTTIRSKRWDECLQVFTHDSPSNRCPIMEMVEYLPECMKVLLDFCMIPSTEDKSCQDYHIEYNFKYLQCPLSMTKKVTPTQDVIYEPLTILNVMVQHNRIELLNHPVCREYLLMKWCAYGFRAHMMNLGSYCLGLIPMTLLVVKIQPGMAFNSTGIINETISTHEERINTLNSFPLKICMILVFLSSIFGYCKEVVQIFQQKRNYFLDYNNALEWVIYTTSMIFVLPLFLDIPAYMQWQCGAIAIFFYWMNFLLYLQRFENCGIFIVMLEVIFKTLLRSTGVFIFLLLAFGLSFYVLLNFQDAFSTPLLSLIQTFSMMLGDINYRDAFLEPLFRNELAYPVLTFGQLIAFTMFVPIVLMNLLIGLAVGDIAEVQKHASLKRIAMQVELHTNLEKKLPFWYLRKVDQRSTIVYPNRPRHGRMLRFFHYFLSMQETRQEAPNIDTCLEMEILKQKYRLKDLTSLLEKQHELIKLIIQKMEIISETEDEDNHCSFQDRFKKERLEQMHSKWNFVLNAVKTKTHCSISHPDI
- experiment: Antagonist activity at rat TRPA1 receptor expressed in HEK293 cells assessed as inhibition of allyl isothiocyanate-induced intracellular Ca2+ elevation incubated for 5 mins prior to allyl isothiocyanate-stimulation by spectrofluorimetric analysis
endpointName: IC50 (µM)
Give bare numbers, in µM.

Here is how some compounds turned out for IC50.
>>> recordedresult("CN(C(=O)n1nnc(Cc2ccc(-c3ccccc3)cc2)n1)C1CCCCC1")
15.4
>>> recordedresult("O=C(N1CCCCC1)n1nnc(Cc2ccc(-c3ccccc3)cc2)n1")
21.5
>>> recordedresult("CN(CCCCc1ccccc1)C(=O)n1nnnc1Cc1ccc(-c2ccccc2)cc1")
83.7

Dear colleague, could you please provide IC50 for the compounds listed below?
1. CC(=O)c1cccc(-c2ccc(Cc3nnn(C(=O)N(C)C)n3)cc2)c1
2. CN(C)C(=O)n1nnc(Cc2ccc(-c3ccc(O)cc3)cc2)n1
3. CN(C(=O)n1nnnc1Cc1ccc(-c2ccccc2)cc1)C1CCCCC1

a:
1. 97.2
2. 30.2
3. 14.9

Dear colleague, could you please provide IC50 for the compounds listed below?
1. Cc1ccccc1-c1ccc(Cc2nnnn2C(=O)N(C)C)cc1
2. CN(Cc1ccc2ccccc2c1)C(=O)n1nnc(Cc2ccc(-c3ccccc3)cc2)n1
3. Cc1cccc(-c2ccc(Cc3nnnn3C(=O)N(C)C)cc2)c1

a:
[45.2, 24.3, 41]

Dear colleague, could you please provide IC50 for the compounds listed below?
1. CN(C)C(=O)n1nnc(Cc2ccc(-c3ccccc3)cc2)n1
2. Cc1ccc(-c2ccc(Cc3nnnn3C(=O)N(C)C)cc2)cc1

a:
1. 11.2
2. 15.9
